# System: Immunoglobulin E (IgE) (Homo sapiens), P01854-1
# Sequence (P01854 other isoform, or with tags, fused parts or gaps): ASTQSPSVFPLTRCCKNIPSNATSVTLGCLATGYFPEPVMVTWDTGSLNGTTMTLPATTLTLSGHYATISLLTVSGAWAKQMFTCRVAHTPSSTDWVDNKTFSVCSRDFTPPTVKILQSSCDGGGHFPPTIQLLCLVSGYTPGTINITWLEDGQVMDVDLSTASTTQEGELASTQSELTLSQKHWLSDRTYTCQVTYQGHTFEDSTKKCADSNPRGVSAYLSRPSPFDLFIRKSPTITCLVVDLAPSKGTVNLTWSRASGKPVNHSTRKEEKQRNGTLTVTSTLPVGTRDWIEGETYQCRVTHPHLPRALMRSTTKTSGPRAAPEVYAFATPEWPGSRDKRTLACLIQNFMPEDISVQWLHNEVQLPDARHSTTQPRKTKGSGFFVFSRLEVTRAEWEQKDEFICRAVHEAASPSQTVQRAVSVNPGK
# RUN DESCRIPTION: filter
# DETAILS: 2'-OMe/2'-deoxy mix; 3:21 pair changed; DPBS Mg/Ca, 0.1 mg/mL BSA, RT
QUANTITY KIND: Kd (µM)
// note: answer is a bare numeric in µM

Recorded Kd, per entry:
>>> df
                    polymer_sequence                          target_or_system  quantity_kind  measured_result
0  AGGCUGGGGACCCAUGGGGGCCU [ARC1245]  Immunoglobulin E (IgE) (Homo sapiens), P01854-1             Kd            0.198
1  AGACUGGGGACCCAUGGGGGUCU [ARC1248]  Immunoglobulin E (IgE) (Homo sapiens), P01854-1             Kd            0.038

Per the records, this sequence ( AGUCUGGGGACCCAUGGGGGACU [ARC1247] ) has Kd equal to 0.192

The sequence identified as AGUCUGGGGACCCAUGGGGGACU [ARC1246] registered its Kd at 0.034

Lab book: Kd of AGACUGGGGACCCAUGGGGGUCU [ARC1249] noted as 0.13

* * *

# Test system: Immunoglobulin E (IgE) (Homo sapiens), P01854-1
# RUN DESCRIPTION: filter
# DETAILS: mAmGmCmCmUdGmGdG-s-dGmAmCmCmCmAmU-s-dG-s-mGdG-s-dGdI-s-dGmCmU-3T [2'-OMe 1-5,7,10-15,17,22,23; dI20 (inosine, parent base G); phosphorothioate 8/9,15/16,16/17,18/19,20/21 (N linkage letters left out); 3' inverted dT24]; dPBS Ca/Mg + BSA, RT
QUANTITY KIND: Kd (nM)
Give the value in nM but do not write nM after it.

Recorded Kd (sequence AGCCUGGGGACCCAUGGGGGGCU [ARC1641] ): 0.4

* * *

# Test system: Immunoglobulin E (IgE) (Homo sapiens), P01854-1
# RUN DESCRIPTION: filter
# DETAILS: 2'-OMe G2,A10,A14 and all C,U; rest 2'-deoxy; 3' idT [2'-OMe G2,C3,C4,U5,A10,C11,C12,C13,A14,U15,C22,U23; 3' inverted dT at 24]; DPBS Mg/Ca, 0.1 mg/mL BSA, RT
QUANTITY KIND: pKd
Please note pKd is a logarithmic value: minus log10 of concentration in mol/L. Answer with that number alone.

// field: pKd; key: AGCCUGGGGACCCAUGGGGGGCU [ARC1332] ; value = 9.30

* * *

# Tested on: Immunoglobulin E (IgE) (Homo sapiens), P01854-1
# RUN DESCRIPTION: filter
# DETAILS: dRmY (2'-OMe C,U); 7-deaza-dG8 [7-deaza-dG at 8; 2'-OMe C3,C4,U5,C11,C12,C13,U15,C22,U23; A,G 2'-deoxy]; DPBS Mg/Ca, 0.1 mg/mL BSA, RT
QUANTITY KIND: Kd (nM)
The reply should contain only the number, in nM.

Kd measured on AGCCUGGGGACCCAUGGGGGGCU [ARC905] = 9

* * *

# Test system: Immunoglobulin E (IgE) (Homo sapiens), P01854-1
# RUN DESCRIPTION: filter
# DETAILS: 2'-OMe G2,G7,A10,A14,G17 and all C,U; rest 2'-deoxy; 3' idT [2'-OMe G2,C3,C4,U5,G7,A10,C11,C12,C13,A14,U15,G17,C22,U23; 3' inverted dT at 24]; DPBS Mg/Ca, 0.1 mg/mL BSA, RT
QUANTITY KIND: pKd
API: returns pKd as number; meaning -log10 of concentration in mol/L.

pKd in this record for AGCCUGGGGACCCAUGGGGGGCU [ARC1334] : 9.52

* * *

# Test system: Immunoglobulin E (IgE) (Homo sapiens), P01854-1
# RUN DESCRIPTION: filter
# DETAILS: ARC1666 chemistry with 2'-OMe I16; 3' idT; DPBS Mg/Ca, BSA, RT
QUANTITY KIND: pKd
FYI, pKd means -log10 of a concentration in mol per litre.

// pKd value for AGCCUGGGNGACCCAUNNNGNNGNNGCUN [ARC3264] : 9.44

* * *

# System: Immunoglobulin E (IgE) (Homo sapiens), P01854-1
# RUN DESCRIPTION: filter
# DETAILS: 2'-OMe/2'-deoxy mix, PS linkages as in Table 17; 3' idT [phosphorothioate linkages (internal N, left out) between 8-9, 18-19, 20-21; 2'-OMe/2'-deoxy mix (positions not given); 3' inverted dT at 24]; DPBS Mg/Ca, 0.1 mg/mL BSA, RT
QUANTITY KIND: Kd (nM)
Return type: number; implicit unit nM.

Kd reading for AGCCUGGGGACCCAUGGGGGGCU [ARC1382] : 1.1

* * *

# System: Immunoglobulin E (IgE) (Homo sapiens), P01854-1
# RUN DESCRIPTION: filter
# DETAILS: 2'-F C and U; KD2 36.9 nM; 1xSHMCK + tRNA
QUANTITY KIND: pKd
Bear in mind: pKd is minus log10 of a mol/L concentration; give just that figure.

// sample GGAAUCAUACACAAGACGUCGCCAGAUUGAGUGUCGUGGUUCC [rRfY minimer SEQ 91] , its pKd was 9.25

* * *

# Tested on: Immunoglobulin E (IgE) (Homo sapiens), P01854-1
# RUN DESCRIPTION: filter
# DETAILS: 2'-OMe at 3; 3' idT [3 (2'-OMe G); 38 (3' inverted dT)]; DPBS Mg/Ca, BSA
QUANTITY KIND: Kd (pM)
Number only, in pM; omit the unit.

Measured Kd of GGGGCTACTTTATCCGTTCCTCCTAGTGGGTAGCCCCT [ARC1267] : 100

* * *

# System: Immunoglobulin E (IgE) (Homo sapiens), P01854-1
# RUN DESCRIPTION: filter
# DETAILS: 2'-OMe at 1-4,7,33-37; PS 28-29; 3' idT [2'-OMe at 1-4,7,33-37; PS 28-29; 3' idT cap after 37 (left out)]; DPBS Mg/Ca, BSA
QUANTITY KIND: pKd
The read-out pKd is expressed as -log10 of concentration in moles per litre.

Summary for this sequence, GGGGCTACTTTATCCGTTCCTCCTAGTGGGTAGCCCC [ARC1411] : pKd is 8.27

* * *

# Test system: Immunoglobulin E (IgE) (Homo sapiens), P01854-1
# RUN DESCRIPTION: filter
# DETAILS: dRmY: 2'-deoxy A,G; 2'-OMe C,U; error 3; dPBS Ca/Mg + BSA, RT
QUANTITY KIND: Kd (nM)
Just the number in nM, nothing appended.

The reported value for GGGAGAGGAGAGAACGUUCUACACUCUGGGGACCCGUGGGGGAGUGCAGCAACGCUGUCGAUCGAUCGAUCGAUG [ARC2005] in terms of Kd is 5

* * *

# Tested on: Immunoglobulin E (IgE) (Homo sapiens), P01854-1
# RUN DESCRIPTION: filter
# DETAILS: ARC1666 pattern without 3' idT [dI (written G) at 16,18,20; 2'-OMe 1-5,7,10-15,17; deoxy 6,8,9,16,18-21; PS 8/9,15/16,16/17,18/19,20/21; no 3' idT]; dPBS + BSA, RT
QUANTITY KIND: Kd
Give the figure together with its unit, number first.

Notebook: AGCCUGGGGACCCAUGGGGGG [ARC2345] , Kd read as 29.3 nM

* * *

# Test system: Immunoglobulin E (IgE) (Homo sapiens), P01854-1
# RUN DESCRIPTION: filter
# DETAILS: 2'-OMe stem block as printed in Table 18; 3' idT [2'-OMe: stem block (exact positions not given in the material); 36 = 3' inverted dT]; DPBS Mg/Ca, BSA
QUANTITY KIND: pKd
// returns pKd (minus log10 of molar concentration), number only

The reported value for GGGCTACTTTATCCGTTCCTCCTAGTGGGTAGCCCT [ARC1306] in terms of pKd is 7.85

* * *

# Test system: Immunoglobulin E (IgE) (Homo sapiens), P01854-1
# RUN DESCRIPTION: filter
# DETAILS: ARC2342 chemistry with 2'-OMe G8; 3' idT; DPBS Mg/Ca, BSA, RT
QUANTITY KIND: pKd
Note on units: pKd is unitless, being -log10 of a concentration expressed in mol/L.

Form: sequence = AGCCUGGGNGACCCAUNNNGNNGNNGNCNUNN [ARC3269] ; pKd = 9.28

* * *

# System: Immunoglobulin E (IgE) (Homo sapiens), P01854-1
# RUN DESCRIPTION: inhibition
# DETAILS: FACS, 15 nM IgE
Here, each record is paired with measured IC50 data.

In [3]: df
Out[3]:
                           polymer_sequence  quantity_kind  measured_result
0  GGCGGCAGCTTTATCCGTACCTCCCAGTGGGCTGCTCC [DNA clone SEQ 149]           IC50          55.9 nM
1  GGGGCTACTTTATCCGTTCCTCTTAGTGGGTAGCCCC [ARC479]           IC50          14.4 nM
2  GGGGCTACTTTATCCGTCCCTCCTAGTGGGTAGCCCC [ARC475]           IC50          17.1 nM

Lab note: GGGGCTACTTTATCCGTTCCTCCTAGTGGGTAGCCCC [ARC480] gave IC50 of 9.7 nM

// field: IC50; key: GGGGCTACTTTATCCGTACCTCCCAGTGGGTAGCCCC [ARC476] ; value = 17.4 nM
